Values compiled from ChEMBL document CHEMBL4513216.

Tested on: Plasmodium berghei
test_protocol: Screen against P. berghei liver stage (PbLuc), transformed with Luciferase, at 10uM
Format: functional, HepG2
experimental_context: tested at 10 uM
Screen size: about 69,000 compounds; about 8,600 (12%) showed an effect of 50% or more. The sample holds strong results, similar compounds and a random draw of the others, so the mix is not that of the screen.
For each record, write down the corresponding INHIBITION.
Report the value in % with no unit label.

Input line: INHIBITION lookup needed for CN1CC2(CCCN(C(=O)Cc3cccc(O)c3)C2)OC1=O (centres undefined) , thanks.
Output line: 16.3

Input line: Look at this compound and give its reported INHIBITION. CCc1cc(NCCCOC2CCN(C)CC2)ncn1
Output line: 25.5

Input line: Give its INHIBITION value. Item: CSCc1ccc(N2CCC(C(O)Cc3ccccc3)CC2)nc1 (centres undefined)
Output line: 74.3

Input line: Any idea what INHIBITION was measured for CN(CC1COc2ccccc2O1)C(=O)CCn1cncn1 (centres undefined) ?
Output line: 44.05

----------
Test system: Plasmodium berghei
test_protocol: Screen against P. berghei liver stage (PbLuc), transformed with Luciferase, at 10uM
Format: functional, HepG2
experimental_context: tested at 10 uM
The campaign covered roughly 69,000 compounds. About 8,600 (12%) showed an effect of 50% or more. Many of the other results were omitted from the sample, so strong results are more common in it than they were.
Output Fulfilled for INHIBITION not less than 30%; output Not fulfilled otherwise.

Input line: API: above_or_equal(metric=INHIBITION, cutoff=30%) for item COc1ccccc1NC(=O)Cc1c(C)nc2c(c1C)c(=O)[nH]n2C
Output line: Not fulfilled

Input line: Does the reported INHIBITION for O=C1CC2(CCN(C(=O)c3ccccn3)CC2)Oc2c(Br)cc(Br)cc21 fall at or above the 30% mark?
Output line: Fulfilled

Input line: Please check the record COc1ccccc1CNc1ccc2nncn2n1 and state if its INHIBITION is at or above 30%.
Output line: Not fulfilled

Input line: Has CCOc1cc(C)nc(N2CCN(C(=O)c3csnn3)CC2)n1 a recorded INHIBITION greater than or equal to 30%?
Output line: Fulfilled

Input line: Does the compound Cc1c[nH]nc1C1CN(c2ncccn2)CCO1 (stereo not drawn) have recorded INHIBITION that is 30% or more?
Output line: Not fulfilled

Input line: Hi team, for Cc1cnn(CCNCC(=O)NCC2(c3ccccc3)CC2)c1 , is the recorded INHIBITION at or above 30%?
Output line: Not fulfilled

Input line: Item CCN(C)C[C@@H]1CN(C(=O)c2cc(-c3ccc(F)cc3)n[nH]2)C[C@@H]1CO with INHIBITION of 30% or above?
Output line: Fulfilled

Input line: Exam item: decide whether the reported INHIBITION for O=C(O)CSC1CCc2ccccc2NC1=O (stereo not drawn) is at least 30%.
Output line: Not fulfilled

----------
Test system: Plasmodium berghei
test_protocol: Screen against P. berghei liver stage (PbLuc), transformed with Luciferase, at 10uM
Format: functional, HepG2
experimental_context: tested at 10 uM
In all, about 69,000 compounds went through this assay and about 8,600 (12%) showed an effect of 50% or more. Only a selection was taken, and strong results are over-represented in it overall.
Param label: returns TRUE when INHIBITION < 30%, returns FALSE otherwise, including exact equality.

Input line: Lab note: confirm whether the reported INHIBITION for this compound is below 30%, equality not counting. compound: COC1CCCN(C(=O)NCC(F)F)C1 (configuration not stated)
Output line: TRUE

Input line: Record COCCN1CCO[C@@H]2CN(Cc3cc(OC)cc(OC)c3)C[C@@H]2C1 : is its INHIBITION strictly below 30%?
Output line: FALSE

Input line: Consider Cn1ncnc1NS(=O)(=O)c1ccc(F)cc1 . Does its INHIBITION lie strictly below 30%?
Output line: TRUE

Input line: Hello, I'm reviewing records and need to know if INHIBITION of CS(=O)(=O)NC[C@H]1OC[C@@H]2CCN(CCc3ccccc3)C[C@@H]21 is below 30%. Could you check?
Output line: FALSE

Input line: Please determine if Cn1nccc1C(=O)N1C[C@@H]2CC[C@H](Oc3cccc(F)c3)[C@@H]2C1 is below 30% in terms of INHIBITION.
Output line: TRUE

Input line: INHIBITION under 30%? Item: CN(C)C(=O)NCC(=O)N1CCCC2(CCC(=O)N(CC3CC3)C2)C1 (configuration not stated)
Output line: TRUE

Input line: State whether 30% exceeds INHIBITION recorded for COCCCSc1ccc(NCc2scnc2C)cc1 .
Output line: FALSE

Input line: For Cc1ccc2c(c1C)OCC2NCc1ccc(C#N)cc1 (configuration not stated) , is the recorded INHIBITION below the cut-off of 30%?
Output line: FALSE

Input line: Quick check: does Cc1c(NCc2ccccc2C#N)cccc1-n1cnnn1 have INHIBITION under 30%?
Output line: FALSE

Input line: INHIBITION strictly < 30% for this compound? CCc1ncc(C(=O)N2CCCN(C3CCCCC3)CC2)cn1
Output line: FALSE

Input line: Decide: INHIBITION of CCc1cnc(N)nc1N(C)CCc1cnn(C)c1 strictly below 30%?
Output line: TRUE

Input line: is_below(INHIBITION, 30%) for Cc1oc(C(=O)O)cc1S(=O)(=O)Nc1cccc(Cl)c1F ?
Output line: TRUE

Input line: Given CCc1nc(NS(=O)(=O)c2cc(C)ccc2F)no1 , is recorded INHIBITION strictly lower than 30%?
Output line: TRUE

Input line: Hello, I'm reviewing records and need to know if INHIBITION of Cc1cnc(-c2cccc(-c3ccn(CCCO)n3)c2)nc1N(C)C is below 30%. Could you check?
Output line: TRUE

Input line: I'd appreciate it if you could check whether CCc1nc(NS(=O)(=O)c2ccc(C)cc2Cl)no1 has INHIBITION smaller than 30%.
Output line: TRUE

Input line: Identify whether the compound CN1C(=O)[C@@H]2CC[C@H]1CN(S(=O)(=O)c1ccc(Cl)cc1Cl)C2 records INHIBITION below 30%.
Output line: TRUE

Input line: I'd appreciate it if you could check whether O=C(NCC1(c2ccc(F)cc2)CCCC1)N1CCOC(CO)C1 (configuration not stated) has INHIBITION smaller than 30%.
Output line: TRUE
